Value source: patent US20220087983A1

Assay: Phase 1: plasma pharmacokinetics in SCD patients
Type: in vivo
Details: human, oral, SCD (N = 5), single dose 700 mg, geometric mean (geometric CV)
Property Label: half-life (h)
API: value field is a number in h; no unit string.

Memo: O=C([C@H](CO)c1ccccc1)N1CC2=C(C1)CN(S(=O)(=O)c1cnc3c(c1)OCCO3)C2 (single isomer, unassigned) [Compound 1] , reported half-life: 14.9

###

Target: CYP3A4 (Homo sapiens)
Sequence (P08684 whole entry): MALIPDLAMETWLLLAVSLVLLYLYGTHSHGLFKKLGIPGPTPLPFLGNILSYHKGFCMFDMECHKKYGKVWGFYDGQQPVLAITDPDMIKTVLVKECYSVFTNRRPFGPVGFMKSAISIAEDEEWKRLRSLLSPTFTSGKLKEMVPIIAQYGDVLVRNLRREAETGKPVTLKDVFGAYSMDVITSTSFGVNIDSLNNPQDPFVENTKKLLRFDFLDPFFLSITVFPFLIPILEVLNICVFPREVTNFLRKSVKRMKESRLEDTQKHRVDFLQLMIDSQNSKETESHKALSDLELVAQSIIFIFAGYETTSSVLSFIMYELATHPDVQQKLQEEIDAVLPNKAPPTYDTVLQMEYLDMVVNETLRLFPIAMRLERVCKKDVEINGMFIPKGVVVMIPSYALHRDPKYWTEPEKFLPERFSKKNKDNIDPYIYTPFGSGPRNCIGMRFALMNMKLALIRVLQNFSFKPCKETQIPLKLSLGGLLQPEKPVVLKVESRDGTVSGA
pIC50: −log10 of the molar value.
Property Label: pIC50

Response field pIC50 (CYP3A4 (Homo sapiens)) for item O=C([C@H](CO)c1ccccc1)N1CC2=C(C1)CN(S(=O)(=O)c1cnc3c(c1)OCCO3)C2 (single isomer, unassigned) : < 4.52
